- System: MS2 coat protein
- Procedure details: apparent KD of MS2 coat protein; designed switch direction (-1 OFF switch, 1 ON switch): 1; higher = weaker reporter binding
- Assay context: Eterna round: R95; input ligand: microRNA oligo, concentration not stated
Result type: apparent KD of MS2 coat protein (nM)

Chain	Reported measurement
CGUCCAGCCUGAGCUGGACAAAAGCAUGUACAUGAGGAUCACCCAUGUUCAUGUACAAGCUUUUUGCUCGUCUUAGC [salish99_208a_r3_075] (puzzle: Sensor for hsa-mir-208a)	14.3
GCAGUACUAGCAGAGGAUAUGUCGAUAACGACAUGAGGAUCACCCAUGUGUACGGAAGUACUCAGACAGAAGGCUGAGUACUGCU [Same State 2 - Hyphema v.2] (puzzle: Same State 2)	30.2
AUUUAACAAGCUUUUUGCUCGUCUUAUAAACAUGAGGAUCACCCAUGUAAUAGCGUGAGAGUAAUUAUUUAAAUAAU [JMF 94] (puzzle: Sensor for hsa-mir-208a)	37.5
ACCAAUCCAAUAAAACAAGCGUGCUCGUCACAUGAGGAUCACCCAUGUUCAAGCGCUGUUCCUAAUUCCUCAGCGCC [Ortiat] (puzzle: Sensor for hsa-mir-208a)	22.3

----------
- System: K4 kissing-loop RNA reporter;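 further: bound reporter read as fluorescence of individual clusters on recovered sequencing chips by microscopy, with normalized cluster intensities fitted with a binding model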
- Procedure details: apparent KD of K4 kissing-loop reporter; higher = weaker reporter binding
- Assay context: Eterna round: R107; input ligand: theophylline 20 uM
Result type: apparent KD of K4 kissing-loop reporter

Chain	Target of assay	Reported measurement
AGCAGUCACUCGAAAAACCAUCGAAGAUGGCGAGGACCGGUACGGCCGCCACUCGGAGUGAUGUUCCGAAGACUGCAAAAUAAAA [#SwitchBubble 15]	K4 kissing-loop RNA reporter	313 nM
AUUAUAUAAUGGAGUGAUGUUCCAUCAGAUACCAGUGAAUUUGAACACCCUUGGCAGCUGUUGUUCAAAUAAUUUAAAUCCUUUA [JR_SSTheophyA_Sub019]	K4 kissing-loop RNA reporter	166 nM
AGUGAUGUUGUGUUAUGUUAGUGAAGUGAUCGAGGACCGGUACGGCCGCCACUCGAGUGAUGAGUGAGUGAUGUUUGUUUAGGGA [popmullin]	K4 kissing-loop RNA reporter	990 nM

----------
- Tested on: MS2 coat protein
- Procedure details: apparent KD of MS2 coat protein; designed switch direction (-1 OFF switch, 1 ON switch): 1; higher = weaker reporter binding
- Assay context: Eterna round: R98; input ligand: none

Chain	apparent KD of MS2 coat protein [nM]
UUUAUUUUUAGAGGAUAUAUAGAGAGAGAGAGAAUAGAAGGCUAAACAUACAUGAACAUGAGGAUCACCCAUGUCACCCAUGUU [Attempt 2]	28.3
AAAAUAAAAUAAAUUAACAUGAGGAUCACCCAUGUCGCUAGACAGGAUAUAUAAAAUAAAAUAAAGUAGAAGGGUCAAAUAAAA [LRO001_SS NG 3]	114
AAACUUAUCACAGGAUAUUCCUGAGGAUGCCAGGGAGAAGGGUGACUCUUGGGACAUGAGGAUCACCCAUGUUCUGUGGGAAAA [Xeusdior]	182
CCGAAUGUCACAGGAUAUGGUCCGGGCACGCGACCAGAAGGGUGAUCUCACAUGAGGAUCACCCAUGUGUAGGCGUUAGACUAC [Dierata]	96.6
UCCGAUGUACAUGAGGAUCACCCAUGUCAUAUGCCCGUGACACAGGAUAUCCAGGGUAGGCCAAAGGAGAAGGGUGAUCCGCGG [Lelete]	51.8
CACGUCCUCACAGGAUAUGCUGGACUUUGUCCAGCAGAAGGGUGAAACAUGAGGAUCACCCAUGUAAGGACGUGUAUAUUUAAU [Denovo 21]	187

// data source = the supplement of paper PMC9170038
